Data provenance is the supplement of paper PMC12764529.

Each entry below carries its reported folding stability dG unfold.
- Method description: folding stability dG unfold from trypsin proteolysis; higher = more stable

Solved entries (count: 8):
[
  {
    "Sequence code": "SAGGSAGGSMTAEEIAEKFPGLPPEQIKNIPIERHPDGYMTVNIEHRGPNGNKQEQQVEIPVDSAGGSAGGS [r12_1050_TrROS]",
    "Quantity name": "folding stability dG unfold",
    "Test value": "0.509 kcal/mol"
  },
  {
    "Sequence code": "SAGMNLDNMKIKEIKLQVNPDGSVEVPFEFRFPNGKPMKVSMRVNNGMIEIYYPNGWPITIDIPPGAFSAGG [r19_84_TrROS]",
    "Quantity name": "folding stability dG unfold",
    "Test value": "1.01 kcal/mol"
  },
  {
    "Sequence code": "SAGGSAGGSAGGMPVTLNVTVKTKDPDGVAATETVTLTFSSPEEALAAIKAAYPNSTIESAGGSAGGSAGGS [r10_1248_JUSTAS]",
    "Quantity name": "folding stability dG unfold",
    "Test value": "0.995 kcal/mol"
  },
  {
    "Sequence code": "MKIRVEITVRNPDGEELKIEIVLSLEELEELRKEGKPLTLEELKALIEERARKLAEELDLEVEIKIVEIEPS [r1_174_TrROS_Hall]",
    "Quantity name": "folding stability dG unfold",
    "Test value": "4.11 kcal/mol"
  },
  {
    "Sequence code": "SAGGSSPLLSPVTLTREVPASEPMAPEEVEAFAAAVAAEVAAAGMTVDFSVERHPDREVLTVTVTVASSAGG [r13_442_JUSTAS]",
    "Quantity name": "folding stability dG unfold",
    "Test value": "-0.372 kcal/mol"
  },
  {
    "Sequence code": "SPQNLVRIAEIKVELKLDGKKYIITIEVYRPPDSDEVIVRVKVIDPSSDKSSPELEKIAKELEKKIEEELKS [r1_229_JUSTAS]",
    "Quantity name": "folding stability dG unfold",
    "Test value": "2.53 kcal/mol"
  },
  {
    "Sequence code": "SGFKVYIPDADLDAAVAVAKALVEKGYDTLLVDSPEVLKAIKEAIPDVKVEPVPVLPPVPPLPGEAEALFSA [r9_639_TrMRF]",
    "Quantity name": "folding stability dG unfold",
    "Test value": "0.71 kcal/mol"
  },
  {
    "Sequence code": "SAGGSAGGSAGWFTIMFKADSPEKVEEIVDELAQENGLEVEIERNPGEPGYIMITIKPPPSAGGSAGGSAGG [r11_797_TrROS]",
    "Quantity name": "folding stability dG unfold",
    "Test value": "1.47 kcal/mol"
  }
]

Ask: Report measured folding stability dG unfold; entry is SAGGSAGGSAGMSVSLTSTTVSLPPELLSPEEAARTEDAVVTTTTSTLPAVVDPATGTVTSAGGSAGGSAGG [r17_310_JUSTAS]
Reply: 1.92 kcal/mol

Ask: Report measured folding stability dG unfold; entry is SAGGGSAWKVTAENLPADGYVKFPDGTTVPPGTELTVPLSAGYTDIRALDPEGNVVSVELVPLPEPKLSAGG [r13_441_JUSTAS]
Reply: -0.15 kcal/mol

Ask: Report measured folding stability dG unfold; entry is SAGGSAGGSAGGKSKTLRLYNKDTGVAVTVTLNEDGSLSVTVEPLPPPPPVEEKVVVKGSAGGSAGGSAGGS [r10_664_TrROS_Hall]
Reply: 0.527 kcal/mol

* * *

- Method description: folding stability dG unfold from chymotrypsin proteolysis; higher = more stable
Each entry below carries its reported folding stability dG unfold.
Write the value in kcal/mol as a bare number.

Solved entries (count: 2):
[
  {
    "Sequence code": "SAGGSAGGMIVELPTPDDETLTLTTRPTPDGSVPVTATRLTPDSTEVTTVSTADPAVVELVAAASAGGSAGG [r6_607_JUSTAS]",
    "folding stability dG unfold, kcal/mol": -0.448
  },
  {
    "Sequence code": "SKYRILIHTPNPGMPPEEIIDELEEPGFKDVEVVDSPSELKELPPNYDIVIMFHNGQFQISIFPPEELDKSA [r9_750_TrROS]",
    "folding stability dG unfold, kcal/mol": 1.4
  }
]

Ask: Report measured folding stability dG unfold; entry is SAGGETKTITIKVDGKLVTITVKKNKNGEELVTVKVYENGKLVEEVTMSKDELEELAKKLGLSVEELKSAGG [r13_108_TrROS_Hall]
Reply: 3.81

* * *

- Method description: folding stability dG unfold from chymotrypsin proteolysis; higher = more stable
Quantity name: folding stability dG unfold (kcal/mol)
Write the value in kcal/mol as a bare number.

[
  {
    "Sequence code": "SAGGSAPSVFPFKAKFKDYDLEIKSITVYENGEVEINAIAYNPDGKKKVELNITLPYSEILDLLKSSAGGSA [r15_56_TrMRF]",
    "Quantity name": "folding stability dG unfold",
    "Reading unit": "kcal/mol",
    "Test value": 2.68
  },
  {
    "Sequence code": "SAGGSAGGSAGIWIPIKDPKEAVDYIQEWFHKKGGYDINIEPTEVYPDGWVRVEINIEPKSAGGSAGGSAGG [r17_430_TrROS]",
    "Quantity name": "folding stability dG unfold",
    "Reading unit": "kcal/mol",
    "Test value": 1.26
  }
]

Ask: Report measured folding stability dG unfold; entry is SAGGSAIVIPVKSWEEFVEALKNAPASVEIIADLPDGNVIKAKIDPSKGPKIIITEVFPVPPELAGSAGGSA [r15_577_TrMRF]
Reply: 1.06

* * *

- Method description: folding stability dG unfold (combined trypsin and chymotrypsin); higher = more stable
Rule: folding stability dG unfold under -0.09 kcal/mol gives NO, otherwise YES.

Example entries and their recorded answers appear below.
[
  {
    "Sequence code": "SAGGSKGKAPVKVRFLFLEDGKVVAEAEVEFEVEVPIPPVPPVFVPEEARKALENGDIEKALKLLGSAGGSA [r2_196_TrMRF]",
    "Assigned label": "YES"
  },
  {
    "Sequence code": "SAGGSAGGSAGGVVSPSSEPVEMTVEEVILETERVPESGESLRPLPVRRVLRTVTNFGLSAGGSAGGSAGGS [r10_122_JUSTAS]",
    "Assigned label": "NO"
  },
  {
    "Sequence code": "SAGGSAGGSAGGTPIAETEVSEDPATGKLITTSKSPTDPKVYVTTTDLATGVPTTTPLLSAGGSAGGSAGGS [r10_1034_JUSTAS]",
    "Assigned label": "YES"
  }
]

Ask: Please check the record SKSRPIEVEFRMPYPNGGPMRMRATVLINPDNGKIGIPMRMETPGKEREYPLPPSMMNNLAKTVLDKLGLSA [r9_1136_TrROS] and state if its folding stability dG unfold is at or above -0.09 kcal/mol.
Reply: NO

Ask: Please check the record SAGGSAGGSSPEENLETQVETELLEEFKPGDKPRKLVKTTVTYPDGTTKEEIVTIDENGNILLSAGGSAGGS [r12_755_JUSTAS] and state if its folding stability dG unfold is at or above -0.09 kcal/mol.
Reply: NO

Ask: Please check the record SAGGSAGGSAPEFVVEGSEEEAEAVFERIKAERPEEFEATDISTVSAVPPVPRYTPEGVLVSAGGSAGGSAG [r3_89_JUSTAS] and state if its folding stability dG unfold is at or above -0.09 kcal/mol.
Reply: NO

Ask: Please check the record SAGGSAGGSPVLLAESVTTLPDGTVVRTRLVRLPDGTYLRETETYPPGGAPARAVERFDDPRLASAGGSAGG [r6_299_JUSTAS] and state if its folding stability dG unfold is at or above -0.09 kcal/mol.
Reply: YES

Ask: Please check the record SAGGSAGGSAGPRIVAFNVPNGKTIPLFAPDGWMIRINIERDPKDGEHKMETEYVPADDISAGGSAGGSAGG [r17_287_TrROS] and state if its folding stability dG unfold is at or above -0.09 kcal/mol.
Reply: NO

* * *

- Method description: folding stability dG unfold from chymotrypsin proteolysis; higher = more stable
Rule: folding stability dG unfold under 2 kcal/mol gives 0.0, otherwise 1.0.

Example entries and their recorded answers appear below.
[
  {
    "Sequence code": "SAGGSAGGSMVTIPTGTEEEVEKVIAELEKKGLKPKKVEKEGNKVTVEFPDGTKVELIIEPGKSAGGSAGGS [r20_93_JUSTAS]",
    "Assigned label": 1.0
  },
  {
    "Sequence code": "SAGGSAETLVITLPPELEGLSEEELLALLKALLPPGAEITEIRVERLPDGSLRVTVTVRVPPPEEPSAGGSA [r15_451_TrROS_Hall]",
    "Assigned label": 1.0
  }
]

Ask: Please check the record SAGGGSTTTRTIGSKDGTVATVTVTTDPATGTTTVTISSPSPEVLEEVAAQLGLPVREVLPDGTVVLASAGG [r13_937_JUSTAS] and state if its folding stability dG unfold is at or above 2 kcal/mol.
Reply: 0.0

Ask: Please check the record SAGGSAGGSAGMPEVEVEVKIIKFDKEKNVFVIEVTDKKTGKRVTLTIKNGKIELKVEEPSAGGSAGGSAGG [r17_370_TrROS_Hall] and state if its folding stability dG unfold is at or above 2 kcal/mol.
Reply: 1.0

Ask: Please check the record SAGGSKKKKPEKPPVVLIKITVEETGKEITIPLEELRNMSAEELAKRIAEELRERYPGLKVRVEIVSAGGSA [r2_392_TrROS_Hall] and state if its folding stability dG unfold is at or above 2 kcal/mol.
Reply: 1.0

Ask: Please check the record SAGGSAGGSAPPIPIQIKIERPDPDGEKRERKIPVWIPPNNIDEIKDEAEEEGWRVKEVTISAGGSAGGSAG [r3_453_TrROS] and state if its folding stability dG unfold is at or above 2 kcal/mol.
Reply: 0.0

Ask: Please check the record SAGGSAGGSMYKVEIEIETSPEGGITIKVTIIPPDGSVIEGNLTPEEVAKRFGFPPPEILELLSAGGSAGGS [r20_235_JUSTAS] and state if its folding stability dG unfold is at or above 2 kcal/mol.
Reply: 1.0

Ask: Please check the record SEVVFTLKDKPSPEELLKALAAVPGFSLETILKNTKVSPGKTGPKLTIKKEDFEKLEKENPEALEIIRSGSA [r9_160_TrMRF] and state if its folding stability dG unfold is at or above 2 kcal/mol.
Reply: 0.0

Ask: Please check the record SAKKAEEIAEKVEKTIKEAAKEKGYDVNIKVKATKGKDGKVTVYIDFDSPENAKEFIEKLPKSVNVVIASAG [r14_491_TrMRF] and state if its folding stability dG unfold is at or above 2 kcal/mol.
Reply: 0.0
